Provide the reported IC50 of each item.
Biological target: 72 kDa type IV collagenase (Homo sapiens, UniProt P08253)
Sequence (P08253 whole entry): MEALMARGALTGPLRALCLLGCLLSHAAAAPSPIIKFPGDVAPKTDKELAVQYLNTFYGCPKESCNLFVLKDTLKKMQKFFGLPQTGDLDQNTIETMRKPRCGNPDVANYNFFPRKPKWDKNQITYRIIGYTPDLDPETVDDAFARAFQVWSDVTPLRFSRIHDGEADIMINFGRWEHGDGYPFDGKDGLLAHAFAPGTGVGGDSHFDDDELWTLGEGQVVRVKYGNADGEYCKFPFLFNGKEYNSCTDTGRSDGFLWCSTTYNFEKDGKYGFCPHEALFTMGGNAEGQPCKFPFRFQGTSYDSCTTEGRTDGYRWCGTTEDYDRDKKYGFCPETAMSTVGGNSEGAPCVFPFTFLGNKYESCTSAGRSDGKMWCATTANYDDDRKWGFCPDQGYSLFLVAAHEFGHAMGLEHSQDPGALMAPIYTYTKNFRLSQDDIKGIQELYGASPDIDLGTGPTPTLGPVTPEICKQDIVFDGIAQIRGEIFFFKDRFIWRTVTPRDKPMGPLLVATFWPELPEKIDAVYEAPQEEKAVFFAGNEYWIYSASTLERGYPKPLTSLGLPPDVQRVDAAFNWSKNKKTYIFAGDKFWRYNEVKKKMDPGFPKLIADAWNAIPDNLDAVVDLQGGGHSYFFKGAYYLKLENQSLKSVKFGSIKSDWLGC
Assay: Dose Response validation of uHTS RPN11 inhibitor hits using a MMP-2 Fluorescence assay.
Type: functional
The source made the active and inactive calls.

Query: Give the reported value of IC50 for this record: NS(=O)(=O)c1ccc(N/C=C\C(=O)c2ccc3ccccc3c2)cc1
Reply: > 100 µM (inactive)

Query: Provide measured IC50 value, entry: CC(C)Cc1nnc(NC(=O)Cc2cccs2)s1
Reply: > 100 µM (inactive)

Query: Kindly indicate its recorded IC50. Item: C/C(C/C(C)=C1/SC(=S)NC1=O)=C1\SC(=S)NC1=O
Reply: 0.302 µM (active)

Query: # return recorded IC50 for entry COc1ccc(C(=O)Nc2ccc(/C(C)=N/NC(=O)c3ccncc3)cc2)cc1
Reply: > 100 µM (inactive)

====

So I've got a bunch of molecules here, and I need their IC50 values.
Molecular target: Photoreceptor-specific nuclear receptor (Homo sapiens);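 further: CHO-S cells with Gal4-NCOR and VP16-NR2E3 two-hybrid luciferase reporter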
Sequence (Q9Y5X4 whole entry, the tested form may be a part): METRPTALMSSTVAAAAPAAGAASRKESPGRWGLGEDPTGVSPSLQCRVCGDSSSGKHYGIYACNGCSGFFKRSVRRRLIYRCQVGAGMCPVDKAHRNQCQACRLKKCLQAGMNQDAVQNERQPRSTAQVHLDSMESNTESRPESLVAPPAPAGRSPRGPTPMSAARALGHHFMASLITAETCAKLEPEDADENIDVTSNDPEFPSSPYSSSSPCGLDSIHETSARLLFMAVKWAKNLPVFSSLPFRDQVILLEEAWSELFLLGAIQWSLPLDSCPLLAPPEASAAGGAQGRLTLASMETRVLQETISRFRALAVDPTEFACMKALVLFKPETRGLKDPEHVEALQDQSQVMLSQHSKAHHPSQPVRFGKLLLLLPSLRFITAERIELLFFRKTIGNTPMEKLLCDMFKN
Type: functional, cell-based
Active and inactive are the calls of the source.

Query: Read off the recorded IC50 for CC(C)c1ccc(/C=C(\c2nc3ccccc3[nH]2)S(=O)(=O)c2ccccc2)cc1
Reply: 2.72 µM (active)

Query: Dear colleague, please send me the reported IC50 for NC1=C(Br)C(=O)c2ncccc2C1=O when you can.
Reply: 2.48 µM (active)

Query: Give the measured IC50 for Cc1cnc(NC(=O)C2CC(=O)N(c3cccc(Cl)c3)C2)s1 (centres undefined)
Reply: 0.0757 µM (active)

Query: Specify reported IC50 for the molecule shown: COc1cc(OC)nc(-n2ncc(Br)c(Br)c2=O)n1
Reply: 2.69 µM (active)

====

Molecular target: Protein skinhead-1 (Caenorhabditis elegans)
Sequence (P34707 whole entry): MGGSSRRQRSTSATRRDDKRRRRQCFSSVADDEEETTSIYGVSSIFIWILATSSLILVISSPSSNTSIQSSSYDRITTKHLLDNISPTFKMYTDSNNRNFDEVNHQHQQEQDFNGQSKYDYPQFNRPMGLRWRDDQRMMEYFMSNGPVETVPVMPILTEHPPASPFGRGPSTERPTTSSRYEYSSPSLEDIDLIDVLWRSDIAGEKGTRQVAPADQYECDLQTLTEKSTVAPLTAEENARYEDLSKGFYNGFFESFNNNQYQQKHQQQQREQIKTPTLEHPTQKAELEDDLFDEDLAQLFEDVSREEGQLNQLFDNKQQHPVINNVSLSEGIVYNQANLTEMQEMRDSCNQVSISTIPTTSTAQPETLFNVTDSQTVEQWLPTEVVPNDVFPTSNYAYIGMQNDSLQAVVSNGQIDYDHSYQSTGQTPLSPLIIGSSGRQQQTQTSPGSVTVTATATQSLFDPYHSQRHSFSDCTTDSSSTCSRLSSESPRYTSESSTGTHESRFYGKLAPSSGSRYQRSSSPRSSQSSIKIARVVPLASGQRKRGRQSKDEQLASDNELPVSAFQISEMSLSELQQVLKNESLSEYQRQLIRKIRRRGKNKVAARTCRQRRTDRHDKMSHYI
Format: functional
Active and inactive are the calls of the source.
Return exactly one item of Y (active), N (inactive)

Query: // param item: COc1ccc(CC(=O)NCc2ccc3c(c2)cc(C)n3C)cc1 ; yields the recorded call
Reply: N

Query: Each compound tested received a call. Report the one for CCN(CC)c1ccc2oc(=O)c(C)nc2c1 .
Reply: N

Query: Lab log entry: COc1ccc(CNCCC(c2ccc(OC)cc2)c2ccccc2OC)cc1 (centres undefined) — outcome as called in the assay?
Reply: N

Query: In this assay, the call recorded for Fc1ccc(-c2nnc(Cc3ccc(Cl)cc3)o2)cc1 was what?
Reply: Y

Query: recorded result category for C=CCn1c(-c2ccccc2)ccc(C#N)c1=O in this test
Reply: Y

Query: Given Clc1cc(Cl)c2nc(N3CCCC3)sc2c1 , state the outcome it received in this test.
Reply: Y

Query: What outcome does the record of this test show for O=C(NC1CCCC1)C1C(c2ccc(C(F)(F)F)cc2)=Nc2ccccc2N1C(=O)c1ccco1 (centres undefined) ?
Reply: N

Query: Identify the outcome logged in this assay for the compound shown: O=C(C[C@H]1C[C@H](C(=O)N2CCOCC2)[C@@]2(CCC3CCCC3)c3[nH]c4cc(-c5ccco5)ccc4c3CCN2C1=O)NCc1ccco1
Reply: N

Query: Tell me the assay call for Clc1ccc(-c2nnc(SCc3ccon3)o2)c(Cl)c1 please.
Reply: N

Query: Which outcome was entered for the compound Clc1ccc(-c2nc(CSc3ccccn3)cs2)cc1 in this test?
Reply: N

Query: State the result this test recorded for O=C(Nc1nccs1)c1ccc(-c2ccccc2Cl)o1 .
Reply: N

Query: GET /call?item= CCC(C)(C)C(=O)Nc1ncc(S(=O)(=O)c2ccc([N+](=O)[O-])cc2)s1 returns the recorded outcome of this test.
Reply: N

Query: Called result for CCN(CC)C(=O)c1sc(NC(=O)Cc2ccc(OC)cc2)c(C#N)c1C
Reply: N

Query: Record request — test call for c1ccc(-c2ccc(-n3ccnc3)cc2)cc1
Reply: Y
